Reported IFI values for the following molecules.
assay: GSK_TCMDC: Inhibition Frequency Index (IFI). The number of non-kinase HTS assays where a compound showed > 50 % inhibition, expressed as a percentage of the number of such assays in which the compound was tested; format: functional
Over roughly 13,000 compounds, “IFI” has its median near 4; the highest 2% begin near 17. Shown is part of a subset that was picked to be rich in the highest values.

# molecule, IFI
rows = [
    ("O=C(c1cc(C(F)(F)F)cc(C(F)(F)F)c1)N1CCC(CCN2CCC3(CC2)C(=O)NCN3c2ccccc2)CC1Cc1ccc(Cl)c(Cl)c1 (centres undefined)", "20%"),
    ("C[C@H](Cc1ccc(OCCCCCCOc2ccccc2)cc1)NC[C@@H](O)c1cc(Br)no1", "13.5%"),
    ("CC(Cc1ccc(OCCCCOc2ccccc2)cc1)NCCCc1nc2ccccc2[nH]1 (centres undefined)", "33.3%"),
    ("CCCCCCC(C)(C)c1cc(O)c2c3c(c(=O)oc2c1)CCN(Cc1ccccc1)C3", "2.22%"),
    ("COc1cccc(CC(C)NCC(O)c2cccc(Cl)c2)c1 (centres undefined)", "1.44%"),
    ("CC(Cc1ccc(OCc2ccc(CCN(C)C)cc2)cc1)NCCc1cccc(Cl)c1 (centres undefined)", "5.84%"),
    ("CC(=O)C1(c2ccccc2)CCN(CCC(NC(=O)c2cc(C(F)(F)F)cc(C(F)(F)F)c2)c2ccc(Cl)c(Cl)c2)CC1 (centres undefined)", "1.45%"),
    ("COc1ccc(C2CNCc3c2cc(OC)c(OC)c3Cl)cc1 (centres undefined)", "2.94%"),
    ("CC(Cc1ccc(OCCOc2ccccc2)cc1)NCC(O)c1cccc(Cl)c1 (centres undefined)", "6.38%"),
]

###

experiment: GSK_TCMDC: Inhibition Frequency Index (IFI). The number of non-kinase HTS assays where a compound showed > 50 % inhibition, expressed as a percentage of the number of such assays in which the compound was tested; assay type: functional
The full ranking holds about 13,000 compounds; the median of “IFI” is about 4, and the highest 2% start at about 17. What follows is part of a selection rich in the highest values, with near analogues and random picks from the rest.
Listing of entries alongside the reported IFI.
parameterMeasured: IFI (%)

# compound, parameterMeasured, observedValue
records = [
    ("CNCCCN(C)C(=O)Oc1c(Br)c(C)nc(C)c1-c1ccc(Oc2ccc(OC(F)(F)F)cc2)cc1", "IFI", 7.41),
    ("O=C(Nc1ccc(Cl)c(Cl)c1)N1CCC(CN2CCC(c3c[nH]c4ccccc34)CC2)CC1", "IFI", 4.23),
    ("c1ccc(C(OCCC2CCN(Cc3cccc4cccnc34)CC2)c2ccccc2)cc1", "IFI", 3.1),
    ("O=C(C=Cc1ccc(Br)cc1)NC1CCC(CN2CCC(c3c[nH]c4ccccc34)CC2)CC1 (configuration not stated)", "IFI", 6.38),
    ("COc1cccc(CN2CCC(CCOC(c3ccccc3)c3ccccc3)CC2)c1O", "IFI", 3.1),
    ("CC(C)CNCc1ccc(-c2cccc(CN(C(=O)CCC3CCCC3)C3CCN(Cc4ccccc4)CC3)c2)cc1", "IFI", 9.29),
    ("O=C(NCc1ccc(S(=O)(=O)N2CCC(CN3CCC(c4c[nH]c5ccccc45)CC3)CC2)s1)c1ccccc1", "IFI", 6.85),
]

###

Listing: IFI of selected compounds
test: GSK_TCMDC: Inhibition Frequency Index (IFI). The number of non-kinase HTS assays where a compound showed > 50 % inhibition, expressed as a percentage of the number of such assays in which the compound was tested; type: functional
Over roughly 13,000 compounds, “IFI” has its median near 4; the highest 2% begin near 17. This is one part of a sample in which the highest values are shown more often than they occur.

# compound, IFI, %
measured = [
    ("CCC1(C)N=C(N)N=C(N)N1c1ccc(Cl)cc1 (stereo not given)", 0),
    ("CC(Cc1ccc(OCCCCOc2ccccc2)cc1)NCCC1CCCN1C (stereo not given)", 32.5),
    ("COC(C(=O)OCCC1CCCN1C)(c1ccccc1)c1ccccc1 (stereo not given)", 2.19),
    ("CN1CC=C(c2c[nH]c3ccc(Sc4ccccc4)cc23)CC1", 3.7),
    ("CCCCCOc1ccc(CC(C)NCC(O)c2cccc(Cl)c2)cc1 (stereo not given)", 4.86),
    ("CC(Cc1ccc(NC(=O)[C@H](C)NCCc2cccc(Cl)c2)cc1)NCCc1cccc(Cl)c1 (stereo not given in full)", 9.35),
    ("N[C@@H](CCN1CCC(c2cccc(O)c2)CC1)Cc1ccc(F)c(F)c1", 12.1),
    ("CC(Cc1ccc(NC(=O)CCCc2ccccc2)cc1)NCCc1cccc(Cl)c1 (stereo not given)", 4.29),
    ("O=C(c1cc(C(=O)NCc2ccc(Cl)cc2)c(=O)n(Cc2ccc(Cl)cc2)c1)c1cc(Cl)ccc1O", 0),
    ("Cc1cc(NC(=O)[C@@H](Nc2ccc(C#N)c3ccccc23)C2CCCCC2)ccc1F", 3.85),
]

###

Attribute: IFI
assay: GSK_TCMDC: Inhibition Frequency Index (IFI). The number of non-kinase HTS assays where a compound showed > 50 % inhibition, expressed as a percentage of the number of such assays in which the compound was tested; type: functional
The full ranking holds about 13,000 compounds; the median of “IFI” is about 4, and the highest 2% start at about 17. Many of the other results were omitted from the sample, so the highest values are more common in it than they were.

# compound, IFI
rows = [
    ("CC(=O)Nc1ccc2[nH]cc(C3CCN(CC4CCN(C(=O)/C=C/c5ccc(Cl)c(Cl)c5)CC4)CC3)c2c1", "1.46%"),
    ("CC(Cc1ccc(Oc2ccc(Cl)cc2)cc1)NCC(O)c1cccc(Cl)c1 (centres undefined)", "7.3%"),
    ("CC(Cc1ccc(OC2CCCCC2)cc1)NCC(O)c1cccc(Cl)c1 (centres undefined)", "21.7%"),
    ("COc1cccc(C(=O)C2CC2CN2CC=C(c3c(C)[nH]c4ccccc34)CC2)c1 (centres undefined)", "3.74%"),
    ("CN(c1cc(NC(=O)c2cccs2)ccn1)C1CCN(Cc2ccccc2)CC1", "2.78%"),
    ("CC[C@H]1CN2CC[C@H]1C[C@H]2[C@H](O)c1cc(N2CCCC(CO)C2)nc2ccc(OC)cc12 (some centres undefined)", "0%"),
    ("CC[C@H]1CN2CC[C@H]1C[C@H]2[C@H](O)c1cc(-c2ccccc2C)nc2ccc(OC)cc12", "5.44%"),
    ("CCCCCc1cc(O)c2c(c1)OC(C)(C)CC2C1=CCN(Cc2ccccc2)CC1 (centres undefined)", "2.86%"),
    ("CN(C)CCc1c[nH]c2ccc(C(=O)Nc3ccc(-c4ccncc4)cc3)cc12", "5.19%"),
]

###

assay: GSK_TCMDC: Inhibition Frequency Index (IFI). The number of non-kinase HTS assays where a compound showed > 50 % inhibition, expressed as a percentage of the number of such assays in which the compound was tested; format: functional
In all, about 13,000 compounds were measured (“IFI”: median about 4, highest 2% from about 17 on). This excerpt belongs to a sample that is enriched for the highest values.
parameterMeasured: IFI (%)

# molecule, measureUnit, observedValue
records = [
    ("COc1ccc(F)cc1-c1csc(N(c2ccc(F)cc2)C2CCNCC2)n1", "%", 14.4),
    ("Fc1ccc(N(c2nc(-c3cc(F)cc(C(F)(F)F)c3)cs2)C2CCNCC2)cc1", "%", 17.1),
    ("O=C(/C=C/c1ccccc1Cl)NC1CCC(CN2C3CCC2CC(c2c[nH]c4ccccc24)C3)CC1 (stereo not given)", "%", 6.38),
    ("O=C(NCc1ccccc1)c1nn(CCCN2CCC3(CC2)C(=O)NCN3c2ccccc2)cc1-c1ccc(Cl)c(Cl)c1", "%", 24.3),
    ("COC(C(=O)OCCC1CCCN1C)(c1ccccc1)C1CCCCC1 (stereo not given)", "%", 1.45),
    ("COc1ccc(N(c2nc(-c3cc(Cl)ccc3Cl)cs2)C2CCNCC2)cc1", "%", 23.1),
    ("O=C1c2ccccc2CCC1CCN1CC=C(c2c[nH]c3ccccc23)CC1 (stereo not given)", "%", 2.92),
    ("O=C1Nc2cccc3c2C1(CCCCN1CC=C(c2c[nH]c4ncccc24)CC1)CCC3 (stereo not given)", "%", 4.41),
    ("CC(Cc1ccc(OCCOc2ccccc2)cc1)NCC(O)c1cccc(C(F)(F)F)c1 (stereo not given)", "%", 2.9),
    ("O=C(C=Cc1ccc(F)c(Br)c1)N1CCC(CN2CCC(c3c[nH]c4ccccc34)CC2)CC1", "%", 6.62),
]
